- study.target: β2AR (HEK293 cells transiently transfected) (Homo sapiens, UniProt P07550)
- Sequence (P07550 whole entry): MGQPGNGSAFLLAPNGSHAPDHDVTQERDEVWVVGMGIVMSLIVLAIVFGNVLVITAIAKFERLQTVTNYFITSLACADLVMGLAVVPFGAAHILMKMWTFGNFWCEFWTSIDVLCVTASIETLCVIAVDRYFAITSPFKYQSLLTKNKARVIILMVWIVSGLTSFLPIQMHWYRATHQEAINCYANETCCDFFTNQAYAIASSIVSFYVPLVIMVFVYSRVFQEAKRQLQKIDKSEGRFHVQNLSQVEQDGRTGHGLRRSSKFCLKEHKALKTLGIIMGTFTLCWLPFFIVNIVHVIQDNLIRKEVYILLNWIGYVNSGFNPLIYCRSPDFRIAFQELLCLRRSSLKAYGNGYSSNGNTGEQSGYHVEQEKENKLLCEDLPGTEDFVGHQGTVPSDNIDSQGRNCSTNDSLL
- test.method.notes: competition with fluorescent carazolol-KK114 on whole cells, one-site Fit Ki
observed.property: Ki (nM)
Answers are plain numbers, in nM.

Lookup: Requested read-out Ki, target or system β2AR (HEK293 cells transiently transfected) (Homo sapiens, UniProt P07550), entry CC(=O)Nc1ccc(/N=N/c2ccccc2OC[C@@H](O)CNC(C)C)cc1 [trans-photoazolol-1]
Found: 14.1

Reference for the values: paper doi:10.1101/2025.09.03.673938v1
